- TEST_TARGET: Cyclin-dependent kinase 2/cyclin A (Homo sapiens)
- ASSAY_OVERVIEW: Inhibition of CDK2/cyclin A
IC50 vs 20 nM: less than gives class 1; not less than gives class 0.

SUBSTANCE_SMILES | CAT
Cn1cc(C(N)=O)c2c1-c1nc(NC3CCN(C(=O)c4ccccc4)CC3)ncc1CC2 | class 1
Cn1cc(C(=O)NCc2ccccc2)c2c1-c1nc(Nc3ccccc3)ncc1CC2 | class 0
NC(=O)c1cn(Cc2ccccc2)c2c1CCc1cnc(NC3CCCC3)nc1-2 | class 0
CNC(=O)c1cn(C)c2c1C(C)(C)Cc1cnc(Nc3ccc(CN4CCOCC4)cc3)nc1-2 | class 0
CNC(=O)c1cn(C)c2c1C(C)(C)Cc1cnc(Nc3ccc(CN4CCN(C)CC4)cc3)nc1-2 | class 0
CN1CCN(c2ccc(CNc3ncc4c(n3)-c3c(c(C(N)=O)cn3C)CC4)cc2)CC1 | class 1

[Q] Please let me know if `Cn1cc(C(=O)NCCO)c2c1-c1nc(Nc3ccccc3)ncc1CC2` shows IC50 below 20 nM.
[A] class 0

[Q] Record `CN1CCN(c2ccc(Nc3ncc4c(n3)-c3c(c(C(N)=O)cn3C)C(C)(C)C4)cc2)CC1` : is its IC50 strictly below 20 nM?
[A] class 1

[Q] Regarding `CNC(=O)c1cn(C)c2c1C(C)(C)Cc1cnc(Nc3ccc(N(C)C)cc3)nc1-2` , kindly confirm whether its IC50 is beneath 20 nM.
[A] class 0

[Q] # TODO verify IC50 < 20 nM strictly for this compound: `Cn1cc(C(=O)N(O)Cc2ccccc2)c2c1-c1nc(NC3CCCC3)ncc1CC2`
[A] class 0

[Q] Here's an entry: `CN1CCN(c2cccc(CNc3ncc4c(n3)-c3c(c(C(N)=O)cn3C)CC4)c2)CC1` . Is its IC50 below 20 nM?
[A] class 0

[Q] Problem: For the compound `CC(=O)N1CCC(n2cc(C(N)=O)c3c2-c2nc(NC4CCCC4)ncc2CC3)CC1` , is IC50 under 20 nM?
[A] class 1

[Q] Record `CNC(=O)c1cn(C)c2c1CCc1cnc(NC3CCN(S(=O)(=O)c4ccccc4)CC3)nc1-2` : is its IC50 strictly below 20 nM?
[A] class 1

[Q] # check: IC50 < 20 nM for `CN(O)C(=O)c1cn(C)c2c1CCc1cnc(NC3CCCC3)nc1-2`
[A] class 0

[Q] Below 20 nM on IC50? Entry `Cn1cc(C(N)=O)c2c1-c1nc(NCc3ccc(S(C)(=O)=O)cc3)ncc1CC2`
[A] class 0

[Q] Confirm or reject: IC50 of `COc1ccc(-n2cc(C(N)=O)c3c2-c2nc(NC4CCCC4)ncc2CC3)cc1` lies strictly below 20 nM
[A] class 1

[Q] Input `Cn1cc(C(N)=O)c2c1-c1nc(NCc3ccccn3)ncc1CC2` ; condition: IC50 strictly below 20 nM. Does it hold?
[A] class 0

[Q] Consider `CCN1CCC(Nc2ncc3c(n2)-c2c(c(C(N)=O)cn2C)CC3)CC1` . Does its IC50 lie strictly below 20 nM?
[A] class 0

[Q] Problem: For the compound `Cn1cc(C(N)=O)c2c1-c1nc(NC3CCN(S(=O)(=O)c4ccccc4)CC3)ncc1CC2` , is IC50 under 20 nM?
[A] class 1

[Q] Is 20 nM strictly greater than the compound's reported IC50? compound: `Cn1cc(C(N)=O)c2c1-c1nc(Nc3ccc(N4CCOCC4)cc3)ncc1CC2`
[A] class 1
